- targetOfAssay: α1G T-type calcium channel (Homo sapiens)
- Construct: host or cells: HEK293
- assay: Assay for % inhibiting activity against T-type calcium channel using FDSS6000 (fluo-3 calcium imaging, KCl activation)
- Assay type: cell-based
- protocolConditions: 10 μM; HEK293 cells stably expressing α1G T-type calcium channel and Kir2.1; compounds of the examples
// thresholds for FDSS (% inhibition)/10uM classes: low group = under 50%, middle group = from 50% up to 60%, high group = 60% and over

>  <compound>
CN1C(=NC2CCCCCC2)SCC1C(=O)NCc1ccccc1C(F)(F)F (stereo not shown) [KHG24671]

>  <assignedClass>
low group

$$$$
>  <compound>
CN1C(=NC23CC4CC(CC(C4)C2)C3)SCC1CC(=O)Nc1ccc(Cl)cc1F.Cl (stereo not shown) [KHG24411]

>  <assignedClass>
high group

$$$$
>  <compound>
CN1C(=NC2CCCCCC2)SCC1C(=O)Nc1cc(C(F)(F)F)cc(C(F)(F)F)c1.Cl (stereo not shown) [KHG24632]

>  <assignedClass>
middle group

$$$$
>  <compound>
CN1C(=NC2CCCCCC2)SCC1C(=O)NCc1cccc(Br)c1 (stereo not shown) [KHG24669]

>  <assignedClass>
low group

$$$$
>  <compound>
Cc1ccc(NC(=O)C2CSC(=NC3CCCCCC3)N2C)cc1.Cl (stereo not shown) [KHG24629]

>  <assignedClass>
low group

$$$$

Exercise: read the entry Cl.O=C(CC1CSC(=NC23CC4CC(CC(C4)C2)C3)N1C1CC1)Nc1ccc2c(c1)OCO2 (stereo not shown) [KHG24804] and state which class it falls under.
low group

Exercise: read the entry CN1C(=NC2CCCCCC2)SCC1C(=O)NCc1cccc(F)c1 (stereo not shown) [KHG24667] and state which class it falls under.
low group

Exercise: read the entry CCCCN1C(=NC23CC4CC(CC(C4)C2)C3)SCC1CC(=O)Nc1ccc2c(c1)OCO2.Cl (stereo not shown) [KHG24803] and state which class it falls under.
high group

Exercise: read the entry CN1C(=NC2CCCCCC2)SCC1CC(=O)Nc1cc(Cl)cc(Cl)c1.Cl (stereo not shown) [KHG24125] and state which class it falls under.
high group

Exercise: read the entry CC(C)N1C(=NC23CC4CC(CC(C4)C2)C3)SCC1CC(=O)Nc1ccc2c(c1)OCO2.Cl (stereo not shown) [KHG24838] and state which class it falls under.
middle group

Exercise: read the entry CN1C(=NC23CC4CC(CC(C4)C2)C3)SCC1CC(=O)Nc1ccccc1.Cl (stereo not shown) [KHG24412] and state which class it falls under.
middle group

Exercise: read the entry CCCN1C(=NC23CC4CC(CC(C4)C2)C3)SCC1CC(=O)Nc1ccc2c(c1)OCO2.Cl (stereo not shown) [KHG24837] and state which class it falls under.
high group

Exercise: read the entry CCCCc1ccc(NC(=O)CC2CSC(=NC34CC5CC(CC(C5)C3)C4)N2C)cc1.Cl (stereo not shown) [KHG24409] and state which class it falls under.
middle group

----------
- targetOfAssay: α1G T-type calcium channel (Homo sapiens, UniProt O43497)
- Construct: host or cells: HEK293
- Sequence (O43497 whole entry): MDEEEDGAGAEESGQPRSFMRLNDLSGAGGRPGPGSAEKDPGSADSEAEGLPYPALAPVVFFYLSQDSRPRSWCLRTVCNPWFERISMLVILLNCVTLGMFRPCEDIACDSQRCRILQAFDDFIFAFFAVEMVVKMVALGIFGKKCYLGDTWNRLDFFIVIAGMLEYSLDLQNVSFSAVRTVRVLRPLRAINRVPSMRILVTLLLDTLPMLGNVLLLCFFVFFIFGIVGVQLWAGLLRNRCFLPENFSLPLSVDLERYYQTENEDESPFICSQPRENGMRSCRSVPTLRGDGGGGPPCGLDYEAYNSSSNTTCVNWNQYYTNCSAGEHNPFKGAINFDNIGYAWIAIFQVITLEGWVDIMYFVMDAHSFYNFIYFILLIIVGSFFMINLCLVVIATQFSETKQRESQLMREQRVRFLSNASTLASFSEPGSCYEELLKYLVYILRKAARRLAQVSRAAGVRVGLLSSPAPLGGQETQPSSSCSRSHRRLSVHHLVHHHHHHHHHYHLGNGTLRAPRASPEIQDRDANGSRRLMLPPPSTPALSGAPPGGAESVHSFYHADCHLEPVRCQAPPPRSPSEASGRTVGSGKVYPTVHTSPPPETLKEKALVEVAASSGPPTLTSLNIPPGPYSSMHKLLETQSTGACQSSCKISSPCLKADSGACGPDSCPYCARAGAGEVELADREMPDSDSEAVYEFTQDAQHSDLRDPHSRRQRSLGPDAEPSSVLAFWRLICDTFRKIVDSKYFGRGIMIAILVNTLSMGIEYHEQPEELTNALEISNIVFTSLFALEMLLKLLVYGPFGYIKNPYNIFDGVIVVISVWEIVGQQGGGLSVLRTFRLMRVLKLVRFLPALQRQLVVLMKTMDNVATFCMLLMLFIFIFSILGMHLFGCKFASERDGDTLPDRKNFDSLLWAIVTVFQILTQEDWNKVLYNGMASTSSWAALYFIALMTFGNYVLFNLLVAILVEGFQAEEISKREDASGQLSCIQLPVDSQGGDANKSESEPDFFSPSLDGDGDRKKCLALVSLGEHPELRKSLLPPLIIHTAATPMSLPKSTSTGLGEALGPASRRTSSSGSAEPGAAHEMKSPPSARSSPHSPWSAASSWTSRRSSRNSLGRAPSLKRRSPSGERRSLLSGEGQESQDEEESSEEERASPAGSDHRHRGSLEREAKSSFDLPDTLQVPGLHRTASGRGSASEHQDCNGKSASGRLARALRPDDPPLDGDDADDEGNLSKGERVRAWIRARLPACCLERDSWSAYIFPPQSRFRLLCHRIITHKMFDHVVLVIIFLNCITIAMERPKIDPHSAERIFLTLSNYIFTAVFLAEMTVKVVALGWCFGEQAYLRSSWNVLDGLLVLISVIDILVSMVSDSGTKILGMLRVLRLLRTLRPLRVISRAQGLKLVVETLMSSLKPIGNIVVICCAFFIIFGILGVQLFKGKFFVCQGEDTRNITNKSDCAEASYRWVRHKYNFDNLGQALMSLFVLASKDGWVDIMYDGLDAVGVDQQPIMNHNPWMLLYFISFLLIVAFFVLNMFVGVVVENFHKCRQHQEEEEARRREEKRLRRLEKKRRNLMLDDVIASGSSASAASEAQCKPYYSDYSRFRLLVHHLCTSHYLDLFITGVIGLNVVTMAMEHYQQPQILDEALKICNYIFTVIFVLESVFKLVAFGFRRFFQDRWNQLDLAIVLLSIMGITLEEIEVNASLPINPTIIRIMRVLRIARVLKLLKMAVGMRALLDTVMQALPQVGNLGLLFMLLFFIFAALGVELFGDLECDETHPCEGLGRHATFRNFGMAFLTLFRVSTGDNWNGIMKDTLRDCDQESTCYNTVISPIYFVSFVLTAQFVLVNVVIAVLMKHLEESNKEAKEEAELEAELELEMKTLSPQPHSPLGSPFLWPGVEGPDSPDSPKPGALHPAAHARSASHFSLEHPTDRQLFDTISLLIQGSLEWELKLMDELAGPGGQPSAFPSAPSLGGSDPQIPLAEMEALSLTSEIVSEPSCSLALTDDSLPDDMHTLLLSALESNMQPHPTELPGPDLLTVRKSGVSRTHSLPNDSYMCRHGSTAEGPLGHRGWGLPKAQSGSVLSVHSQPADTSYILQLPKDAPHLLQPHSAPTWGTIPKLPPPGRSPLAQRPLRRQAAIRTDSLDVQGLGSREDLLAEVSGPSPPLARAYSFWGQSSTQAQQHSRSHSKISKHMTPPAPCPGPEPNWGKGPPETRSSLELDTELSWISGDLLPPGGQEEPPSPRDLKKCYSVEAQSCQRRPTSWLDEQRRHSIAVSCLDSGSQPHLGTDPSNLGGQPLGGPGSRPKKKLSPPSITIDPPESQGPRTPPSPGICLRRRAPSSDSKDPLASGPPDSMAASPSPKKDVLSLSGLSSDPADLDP
- assay: Assay for % inhibiting activity against T-type calcium channel using FDSS6000 (fluo-3 calcium imaging, KCl activation)
- Format: cell-based
- protocolConditions: HEK293, 10 μM; HEK293 cells stably expressing α1G T-type calcium channel and Kir2.1; compounds of the examples; read-out: FDSS (% inhibition)/10uM
Returns Y if the recorded inhibition at 10 µM is greater than or equal to 50%, and N otherwise.

>  <molecule>
Cl.O=C(CC1CSC(=NC2CCCCC2)N1C1CC1)Nc1ccc(C(F)(F)F)cc1 (stereo not shown) [KHG24268, hydrochloride]

>  <targetOfAssay>
α1G T-type calcium channel (Homo sapiens, UniProt O43497)

>  <assignedClass>
Y

$$$$
>  <molecule>
CC1SC(=NC2CCCCC2)N(C)C1CC(=O)Nc1ccc(Cl)cc1 (stereo not shown)

>  <targetOfAssay>
α1G T-type calcium channel (Homo sapiens, UniProt O43497)

>  <assignedClass>
Y

$$$$
>  <molecule>
CCCN1C(=NC23CC4CC(CC(C4)C2)C3)SCC1CC(=O)Nc1ccc(Oc2ccccc2)cc1.Cl (stereo not shown) [KHG24815, hydrochloride]

>  <targetOfAssay>
α1G T-type calcium channel (Homo sapiens, UniProt O43497)

>  <assignedClass>
N

$$$$
>  <molecule>
CC1SC(=NC2CCCCCC2)N(C)C1CC(=O)Nc1ccc([N+](=O)[O-])cc1.Cl (stereo not shown) [KHG24642, hydrochloride]

>  <targetOfAssay>
α1G T-type calcium channel (Homo sapiens, UniProt O43497)

>  <assignedClass>
Y

$$$$
>  <molecule>
CCc1ccc(NC(=O)CC2C(C)SC(=NC3CCCCC3)N2C)cc1.Cl (stereo not shown) [KHG24523, hydrochloride]

>  <targetOfAssay>
α1G T-type calcium channel (Homo sapiens, UniProt O43497)

>  <assignedClass>
N

$$$$

Here's the next entry for you.
Exam item: decide whether the reported inhibition at 10 µM for CCCCc1ccc(NC(=O)CC2CSC(=NC34CC5CC(CC(C5)C3)C4)N2CCCC)cc1.Cl (stereo not shown) [KHG24776, hydrochloride] is at least 50%.
N
